- Tested on: DeltatarO mutant
- protocol-details: S. aureus survival, RN4220 and DeltatarO strains – OD600, teichoic acid synthesis inhibitors, primary screen (AID 463173)
- settings: S. aureus RN4220 wild type/DeltatarO growth, OD600, 18 h, active compounds read low, screened at 18.75 µg/mL (by protocol)
About 4,300 (8.3%) of roughly 52,000 compounds were called active. The sample holds actives, similar compounds and a random draw of the others, so the mix is not that of the screen.

compound: Cc1ccccc1-c1nnc(SCC(=O)N2CCCc3ccccc32)o1
study-system: DeltatarO mutant
survival: 9% (active)
//
compound: O=C(CC1N=C2c3ccccc3N=C(SCc3ccc(F)cc3)N2C1=O)NC1CCCCC1 (configuration not stated)
study-system: DeltatarO mutant
survival: 124% (inactive)
//
compound: CCCCSCCCNC(=O)CN1C(=O)COc2ccc(S(=O)(=O)N3CCCC3)cc21
study-system: DeltatarO mutant
survival: 66% (inactive)
//
compound: O=C(NCCSc1c[nH]c2ccccc12)c1ccc(Cl)cc1
study-system: DeltatarO mutant
survival: 47% (active)
//
compound: CC(C)c1ccc(CNc2n[nH]c(-c3ccco3)n2)cc1
study-system: DeltatarO mutant
survival: 80% (inactive)
//
compound: COc1ccc(CCNC(=O)CCn2c(=O)c3ccccc3n(Cc3c(C)cc(C)cc3C)c2=O)cc1OC
study-system: DeltatarO mutant
survival: 89% (inactive)
//
compound: CCN(c1ccccc1)c1nnc(NC(=O)Nc2cccc(C(F)(F)F)c2)s1
study-system: DeltatarO mutant
survival: 88% (inactive)
//
compound: COc1ccc(S(=O)(=O)n2nc(-c3ccco3)nc2NCc2ccc(OC)c(OC)c2)cc1
study-system: DeltatarO mutant
survival: 55% (inactive)
//
compound: O=C(CSc1nnc(-c2ccc(F)cc2)o1)N1CCCc2ccccc21
study-system: DeltatarO mutant
survival: 72% (inactive)
//
compound: Cc1ccc(-c2nnc(SCC(=O)N3CCc4ccccc43)o2)cc1
study-system: DeltatarO mutant
survival: 95% (inactive)
//
compound: COc1ccc(C(=O)CCC(=O)Nc2ccc(OC)c(Cl)c2)cc1
study-system: DeltatarO mutant
survival: 86% (inactive)
//
compound: COc1ccc(CCNC(=O)c2ccc(Cn3c(=O)c4ccccc4n(Cc4cccc(F)c4)c3=O)cc2)cc1OC
study-system: DeltatarO mutant
survival: 78% (inactive)
//
compound: C(=N\N1CCN(c2ccccn2)CC1)/c1ccco1
study-system: DeltatarO mutant
survival: 100% (inactive)
//
compound: O=C(CC1N=C2c3ccccc3N=C(SCc3ccc(Cl)cc3)N2C1=O)NCc1cccs1 (configuration not stated)
study-system: DeltatarO mutant
survival: 75% (inactive)
//
compound: Cc1ccc(C(=O)NCCSc2c(C)[nH]c3ccccc23)cc1C
study-system: DeltatarO mutant
survival: 55% (inactive)
//
compound: COc1ccc(Cl)cc1NC(=O)CN1Cc2ccccc2C1=O
study-system: DeltatarO mutant
survival: 100% (inactive)
//
compound: COc1ccc(CCNC(=O)C(C)n2nc(C)c3sc4ccccc4c3c2=O)c(OC)c1 (configuration not stated)
study-system: DeltatarO mutant
survival: 58% (inactive)
//
compound: CCOc1ccc2nc(N3CCCC(C(=O)NCCc4ccc(Cl)cc4)C3)sc2c1 (configuration not stated)
study-system: DeltatarO mutant
survival: 48% (active)
//
compound: CCOc1ccccc1-n1nnc(-c2nc(-c3ccccc3C)no2)c1C
study-system: DeltatarO mutant
survival: 96% (inactive)
//
compound: O=C(CN1C(=O)COc2ccc(S(=O)(=O)N3CCCC3)cc21)N1CCN(c2cccc(C(F)(F)F)c2)CC1
study-system: DeltatarO mutant
survival: 79% (inactive)
//
compound: COc1cn(CC(=O)Nc2c(C)cc(C)cc2C)c(CN2CCCCC2)cc1=O
study-system: DeltatarO mutant
survival: 98% (inactive)
//
compound: CCSc1ncc(Cl)c(C(=O)Nc2nc3ccc(Cl)cc3s2)n1
study-system: DeltatarO mutant
survival: 100% (inactive)
//
compound: COc1ccc(CNc2nc(-c3ccco3)nn2S(=O)(=O)c2ccc3ccccc3c2)cc1OC
study-system: DeltatarO mutant
survival: 58% (active)
//
compound: O=C(NCCc1ccc(Cl)cc1)c1ccc2c(c1)N(Cc1ccccc1F)C(=O)c1ccccc1S2(=O)=O
study-system: DeltatarO mutant
survival: 79% (inactive)
//
compound: O=C(CN1C(=O)COc2ccc(S(=O)(=O)N3CCOCC3)cc21)N1CCN(c2cccc(C(F)(F)F)c2)CC1
study-system: DeltatarO mutant
survival: 93% (inactive)
//
compound: Cc1ccc(-c2nnc(SCC(=O)N3CCCc4ccccc43)o2)cc1
study-system: DeltatarO mutant
survival: 63% (inactive)
//
compound: O=C(NC1CCCCC1)N1CCN(c2ccccn2)CC1
study-system: DeltatarO mutant
survival: 94% (inactive)
//
compound: CC(C)(C)c1ccc(C(=O)NC2CCSC2=O)cc1 (configuration not stated)
study-system: DeltatarO mutant
survival: 92% (inactive)
//
compound: COc1ccc(C(C)=O)cc1CSc1nc(NCc2ccccc2)c2ccccc2n1
study-system: DeltatarO mutant
survival: 89% (inactive)
//
compound: CCCCN(C)CCNC(=O)C1CCN(c2nc3ccc(CC)cc3s2)CC1
study-system: DeltatarO mutant
survival: 45% (inactive)
//
compound: O=C(CSc1nnc(-c2ccccc2Cl)o1)N1CCCc2ccccc21
study-system: DeltatarO mutant
survival: 35% (active)
//
compound: CCOC(=O)c1cc2c(ccn2C)n1Cc1ccc(OC(F)(F)F)cc1
study-system: DeltatarO mutant
survival: 96% (inactive)
//
compound: Cc1cccc(-c2nnc(SCC(=O)N3CCCc4ccccc43)o2)c1
study-system: DeltatarO mutant
survival: 11% (active)
//
compound: O=C(CSc1nnc(-c2ccc(Cl)cc2)o1)N1CCc2ccccc21
study-system: DeltatarO mutant
survival: 96% (inactive)
//
compound: CN(C)S(=O)(=O)c1ccc(C(=O)NCCSc2c(-c3ccc(Cl)cc3)[nH]c3ccccc23)cc1
study-system: DeltatarO mutant
survival: 67% (inactive)
//
compound: O=C(NCCSc1c[nH]c2ccccc12)c1ccccc1Cl
study-system: DeltatarO mutant
survival: 57% (inactive)
//
compound: Cc1ccc(Cn2c(=O)n(-c3ccccc3)c(=O)c3ccc(C(=O)NCc4ccco4)cc32)cc1
study-system: DeltatarO mutant
survival: 75% (inactive)
//
compound: COc1ccccc1CNC(=O)CN1C(=O)COc2ccc(S(=O)(=O)N3CCC(C)CC3)cc21
study-system: DeltatarO mutant
survival: 76% (inactive)
//
compound: COc1ccc(C(C)=O)cc1CSc1nc(Nc2ccc(F)c(F)c2)c2ccccc2n1
study-system: DeltatarO mutant
survival: 25% (active)
//
compound: O=C(CSc1nnc(-c2ccccc2)o1)N1CCCc2ccccc21
study-system: DeltatarO mutant
survival: 80% (inactive)
//
compound: Cc1ccc(NC(=O)C2CCCN(c3ncnc4c3nc3n4CCCCC3)C2)c(Br)c1 (configuration not stated)
study-system: DeltatarO mutant
survival: 87% (inactive)
//
compound: COc1ccccc1CNC(=O)Cn1c(=O)ccc2cc(S(=O)(=O)N3CCCC3)ccc21
study-system: DeltatarO mutant
survival: 69% (inactive)
